Molecular target: T1, TIGIT (UniProt Q495A1 22-141, limits assumed)
T1 construct: also called T cell immunoreceptor with Ig and ITIM domains; hTIGIT
T1 sequence (looked up): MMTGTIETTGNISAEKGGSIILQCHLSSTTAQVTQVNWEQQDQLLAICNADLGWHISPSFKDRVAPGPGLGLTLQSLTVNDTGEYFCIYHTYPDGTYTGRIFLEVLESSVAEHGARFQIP
Assay: SPR, VHH-V5-His
Measured parameter: RU (RU)

TIGIT-31-06 (VHH-V5-His) (VHH, also called TIGIT-31-6; 31-6; not shown: V5-His tag) VHH: EVQLVESGGGLVQPGGSLRLSCAASGFTFSTSWMGWFRQAPGKERELVASITSGGSTYYADSVKGRFTISADNSKNTAYLQMNSLKPEDTAVYYCAADVWYGSTWRNWGQGTLVTVSS; 107
TIGIT-30-58 (VHH-V5-His) (VHH, not shown: V5-His tag) VHH: EVQLVESGGGLVQAGGSLRLSCAASGFAFGDSWMGWFRQAPGKEREWVSGISSGGGRTYYADSVKGRFTISADNAKNTVYLQMNSLKPEDTAVYYCAADVWYGSTWRNWGQGTQVTVSS; 120
TIGIT-31-20 (VHH-V5-His) (VHH, not shown: V5-His tag) VHH: EVQLVESGGGLVQPGGSLRLSCAASGFTFSGNWMGWFRQAPGKEREFVAGILSDGRELYADSVKGRFTISADNSKNTAYLQMNSLKPEDTAVYYCAADVWYGSTWRNWGQGTLVTVSS; 45
TIGIT-31-47 (VHH-V5-His) (VHH, not shown: V5-His tag) VHH: EVQLVESGGGLVQPGGSLRLSCAASGFTFSGNWMGWFRQAPGKEREWVVGISSGGTPHYADSVKGRFTISADNSKNTAYLQMNSLKPEDTAVYYCAADVWYGSTWRNWGQGTLVTVSS; 119
TIGIT-31-08 (VHH-V5-His) (VHH, also called TIGIT-31-8; 31-8; not shown: V5-His tag) VHH: EVQLVESGGGLVQPGGSLRLSCAASGFTFSTSWMGWFRQAPGKERELVAARNSGGNTNYADSVKGRFTISADNSKNTAYLQMNSLKPEDTAVYYCAADVWYGSTWRNWGQGTLVTVSS; 178
TIGIT-31-56 (VHH-V5-His) (VHH, not shown: V5-His tag) VHH: EVQLVESGGGLVQPGGSLRLSCAASGRIFRRNSMGWFRQAPGKEREFVAVITRSGGGEVTTYADSVKGRFTINADNSKNTAYLQMNSLKPEDTAVYYCAMSSVTRGSSDWGQGTLVTVST; 301
TIGIT-31-32 (VHH-V5-His) (VHH, not shown: V5-His tag) VHH: EVQLVESGGGLVQPGGSLRLSCAASGFTFSTSWMGWFRQAPGKERELVAAMTSGGGTNYADSVKGRFTISADNSKNTAYLQMNSLKPEDTAVYYCAADVWYGSTWRNWGQGTLVTVSS; 145
TIGIT-30-54 (VHH-V5-His) (VHH, not shown: V5-His tag) VHH: EVQLVESGGGLVQAGGSLRLSCAASGFTFRSFGMGWFRQAPGKEREFVASTIWSRGDTYYADSVKGRFTISADNAKNTVYLQMNSLKPEDTAVYYCASSPYGPLYRSTHYYDWGQGTQVTVSS; 130
